Target: Carbonic anhydrase 9 (Homo sapiens, UniProt Q16790)
measuredQuantity: Ki (µM)
Field: numeric (µM). Do not append units.

Known results for compounds:
{"compound": "CC(=O)N1N=C(c2ccc(F)cc2)CC1c1c(C)nn(-c2ccc(S(N)(=O)=O)cc2)c1Cl (stereo not drawn)", "targetDesc": "Carbonic anhydrase 9 (Homo sapiens, UniProt Q16790)", "Ki (µM)": 0.0069}
{"compound": "CC(=O)N1N=C(c2ccccc2)CC1c1c(C)nn(-c2ccc(S(N)(=O)=O)cc2)c1Cl (stereo not drawn)", "targetDesc": "Carbonic anhydrase 9 (Homo sapiens, UniProt Q16790)", "Ki (µM)": 0.0631}
{"compound": "Cc1nn(-c2ccc(S(N)(=O)=O)cc2)c(Cl)c1C1CC(c2ccc(Br)cc2)=NN1c1ccc(S(N)(=O)=O)cc1 (stereo not drawn)", "targetDesc": "Carbonic anhydrase 9 (Homo sapiens, UniProt Q16790)", "Ki (µM)": 0.0444}

Any idea what its Ki is? The compound is CC(=O)N1N=C(c2ccc(C)cc2)CC1c1c(C)nn(-c2ccc(S(N)(=O)=O)cc2)c1Cl (stereo not drawn)
0.0671

Any idea what its Ki is? The compound is CC(=O)N1N=C(c2ccc(Cl)cc2)CC1c1c(C)nn(-c2ccc(S(N)(=O)=O)cc2)c1Cl (stereo not drawn)
0.0308

Any idea what its Ki is? The compound is COc1ccc(C2=NN(c3ccc(S(N)(=O)=O)cc3)C(c3c(C)nn(-c4ccc(S(N)(=O)=O)cc4)c3Cl)C2)cc1 (stereo not drawn)
0.0524

Any idea what its Ki is? The compound is CC(=O)N1N=C(c2ccc(Br)cc2)CC1c1c(C)nn(-c2ccc(S(N)(=O)=O)cc2)c1Cl (stereo not drawn)
0.0672

Any idea what its Ki is? The compound is Cc1nn(-c2ccc(S(N)(=O)=O)cc2)c(Cl)c1C1CC(c2ccccc2)=NN1c1ccc(S(N)(=O)=O)cc1 (stereo not drawn)
0.0716

Source: ChEMBL document CHEMBL3600306
